Compiled notes: published log10 IC50 values involving the protein given by its sequence.
Protein target, amino acids: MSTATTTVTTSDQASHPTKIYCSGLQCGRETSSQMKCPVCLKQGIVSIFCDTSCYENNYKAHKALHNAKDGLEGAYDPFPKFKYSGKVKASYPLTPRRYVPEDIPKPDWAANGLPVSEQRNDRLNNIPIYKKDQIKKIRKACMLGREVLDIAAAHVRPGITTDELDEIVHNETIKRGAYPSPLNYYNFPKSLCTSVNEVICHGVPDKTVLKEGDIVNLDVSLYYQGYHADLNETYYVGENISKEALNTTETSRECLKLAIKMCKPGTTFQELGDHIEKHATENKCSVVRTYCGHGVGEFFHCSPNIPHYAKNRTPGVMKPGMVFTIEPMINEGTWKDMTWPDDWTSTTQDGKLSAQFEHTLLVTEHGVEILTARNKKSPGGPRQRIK
Values below are the log10 of the recorded IC50, with nM as the unit.

# MOLECULE, MEASURED_ON, log10 IC50
data = [
    ("C=C(C)CC(=O)Nc1cccnc1C(=O)Nc1nccs1", "the protein given by its sequence", 3.67),
    ("O=C(Nc1nccs1)c1ncsc1Cc1ccc(F)cc1Cl", "the protein given by its sequence", 2.95),
    ("O=C(Nc1nccs1)c1ncsc1CCN1CCCCC1", "the protein given by its sequence", 2.61),
    ("CO[C@@H](Cc1scnc1C(=O)Nc1nccs1)c1ccccc1", "the protein given by its sequence", 2.65),
    ("COc1ccc(C(Cc2scnc2C(=O)Nc2nccs2)OC)cc1 (stereo not given)", "the protein given by its sequence", 2.49),
]

With those in mind, consider the next molecule.
Entry under review: COc1cc(C(=O)OCCc2scnc2C(=O)Nc2nccs2)cc(OC)c1OC . Reported log10 IC50?
3.19

====

Compiled notes: published IC50 values involving Methionine aminopeptidase 1 (Saccharomyces cerevisiae S288c, UniProt Q01662).
MEASURED_ON: Methionine aminopeptidase 1 (Saccharomyces cerevisiae S288c, UniProt Q01662)
Sequence (Q01662 whole entry): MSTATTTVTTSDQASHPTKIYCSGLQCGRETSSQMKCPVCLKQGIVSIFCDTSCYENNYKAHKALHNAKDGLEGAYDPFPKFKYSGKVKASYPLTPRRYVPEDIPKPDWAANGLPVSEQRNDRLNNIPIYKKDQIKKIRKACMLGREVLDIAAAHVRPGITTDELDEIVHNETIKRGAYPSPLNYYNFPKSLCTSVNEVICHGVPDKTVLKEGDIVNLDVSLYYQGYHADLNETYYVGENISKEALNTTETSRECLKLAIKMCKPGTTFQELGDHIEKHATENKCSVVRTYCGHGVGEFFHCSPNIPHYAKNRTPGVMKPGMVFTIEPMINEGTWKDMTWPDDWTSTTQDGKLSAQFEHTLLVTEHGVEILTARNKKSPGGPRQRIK
The reply should contain only the number, in µM.

Completed entries (count: 10):
# MOLECULE, IC50 [µM]
measured = [
    ("CCCCCC(=O)Nc1cccnc1C(=O)Nc1nccs1", 0.62),
    ("O=C(Nc1nccs1)c1ncsc1CN1CCOCC1", 1.76),
    ("Nc1scnc1C(=O)Nc1nccs1", 13.2),
    ("COCc1scnc1C(=O)Nc1nccs1", 7.53),
    ("C/C=C(\\C)C(=O)Nc1cccnc1C(=O)Nc1nccs1", 10.9),
    ("O=C(CN1CCCC1)Nc1scnc1C(=O)Nc1nccs1", 0.86),
    ("O=C(Oc1cccnc1C(=O)Nc1nccs1)c1ccccc1I", 0.89),
    ("COC(Cc1scnc1C(=O)Nc1nccs1)c1ccc(F)cc1 (centres undefined)", 0.39),
    ("O=C(Nc1nccs1)c1ncccc1OC(=O)C1CCCCC1", 0.32),
    ("CC(C)=CCCC(=O)Nc1cccnc1C(=O)Nc1nccs1", 0.31),
]

Can you look up IC50 on Methionine aminopeptidase 1 (Saccharomyces cerevisiae S288c, UniProt Q01662) for O=C(COCc1ccccc1)OCCc1scnc1C(=O)Nc1nccs1 ?
0.55

Can you look up IC50 on Methionine aminopeptidase 1 (Saccharomyces cerevisiae S288c, UniProt Q01662) for O=C(Nc1nccs1)c1ncsc1CCO ?
10.4

====

Compiled notes: published pIC50 values involving the protein given by its sequence.
Target chain: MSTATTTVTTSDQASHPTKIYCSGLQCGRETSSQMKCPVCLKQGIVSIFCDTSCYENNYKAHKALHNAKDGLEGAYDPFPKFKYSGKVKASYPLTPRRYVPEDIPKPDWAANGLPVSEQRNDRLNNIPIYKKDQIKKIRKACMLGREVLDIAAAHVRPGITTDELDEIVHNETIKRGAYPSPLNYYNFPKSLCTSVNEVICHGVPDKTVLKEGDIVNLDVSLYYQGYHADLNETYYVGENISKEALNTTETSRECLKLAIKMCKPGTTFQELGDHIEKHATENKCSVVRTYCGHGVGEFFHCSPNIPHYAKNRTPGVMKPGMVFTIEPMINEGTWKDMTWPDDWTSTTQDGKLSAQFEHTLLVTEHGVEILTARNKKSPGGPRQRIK
Here pIC50 is given on a logarithmic scale as minus log10 of the concentration in mol/L.

# COMPOUND, pIC50
measured = [
    ("O=C(CN1CCCCC1)Nc1scnc1C(=O)Nc1nccs1", 5.84),
    ("COc1ccccc1/C=C/C(=O)Oc1cccnc1C(=O)Nc1nccs1", 5.00),
]

Entry under review: CC(C)(C)C(=O)Nc1cccnc1C(=O)Nc1nccs1 . Reported pIC50?
6.47

Entry under review: COCCc1scnc1C(=O)Nc1nccs1 . Reported pIC50?
5.19

Entry under review: CCc1scnc1C(=O)Nc1nccs1 . Reported pIC50?
5.12

Entry under review: CCCCC(Cc1scnc1C(=O)Nc1nccs1)OC (stereo not drawn) . Reported pIC50?
6.35

Entry under review: CC(C)Cc1scnc1C(=O)Nc1nccs1 . Reported pIC50?
6.00

Entry under review: CCOC(=O)CC(=O)Nc1scnc1C(=O)Nc1nccs1 . Reported pIC50?
6.17

Entry under review: CC(C)=CC(=O)Oc1cccnc1C(=O)Nc1nccs1 . Reported pIC50?
6.31

Entry under review: O=C(Nc1scnc1C(=O)Nc1nccs1)c1ccc(F)cc1 . Reported pIC50?
6.32

Entry under review: CC(=O)Nc1ccnc(C(=O)Nc2nccs2)c1 . Reported pIC50?
4.77

====

Compiled notes: published IC50 values involving Methionine aminopeptidase 1 (Saccharomyces cerevisiae S288c, UniProt Q01662).
Note that class boundaries on IC50 are low: < 800 nM; mid: ≥ 800 nM and < 3000 nM; high: ≥ 3000 nM

As a guide, the following entries are already answered.
# MOLECULE, CLASS_NAME
measured = [
    ("CO[C@@H]1[C@H](OC(=O)/C=C/C=C/C=C/C=C/C(=O)O)CC[C@]2(CO2)[C@H]1[C@@]1(C)O[C@@H]1CC=C(C)C", "high"),
    ("CC(C)=CC(=O)Nc1cccnc1C(=O)Nc1nccs1", "low"),
    ("CCCCCc1scnc1C(=O)Nc1nccs1", "mid"),
    ("CC(=O)Oc1ccccc1C(=O)Oc1cccnc1C(=O)Nc1nccs1", "high"),
    ("O=C(Nc1nccs1)c1ncsc1CN1CCCC1", "low"),
    ("O=C(Oc1cccnc1C(=O)Nc1nccs1)c1ccccc1[N+](=O)[O-]", "high"),
    ("C=CCC(=O)Nc1scnc1C(=O)Nc1nccs1", "mid"),
    ("O=C(Nc1nccs1)c1ccccn1", "high"),
    ("COC(C)(C)Cc1scnc1C(=O)Nc1nccs1", "high"),
    ("COC(C)Cc1scnc1C(=O)Nc1nccs1 (centres undefined)", "mid"),
]

// next entry
Any idea which band O=C(Nc1nccs1)c1cscn1 is in?
mid

====

Protein target, amino acids: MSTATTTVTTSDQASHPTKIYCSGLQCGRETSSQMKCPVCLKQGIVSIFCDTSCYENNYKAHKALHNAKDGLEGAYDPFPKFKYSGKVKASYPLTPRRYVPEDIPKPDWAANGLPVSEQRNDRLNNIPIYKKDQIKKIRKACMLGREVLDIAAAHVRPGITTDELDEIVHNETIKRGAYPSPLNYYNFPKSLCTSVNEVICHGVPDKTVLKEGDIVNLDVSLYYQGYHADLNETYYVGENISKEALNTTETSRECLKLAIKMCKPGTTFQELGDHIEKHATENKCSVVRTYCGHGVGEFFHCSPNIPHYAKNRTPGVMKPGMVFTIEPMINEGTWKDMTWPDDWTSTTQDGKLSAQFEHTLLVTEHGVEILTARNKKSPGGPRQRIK
Compiled notes: published IC50 values involving the protein given by its sequence.
The reply should contain only the number, in nM.

Completed entries (count: 2):
# COMPOUND, MEASURE_NAME, UNIT_SYMBOL, TEST_RESULT
data = [
    ("COC(Cc1scnc1C(=O)Nc1nccs1)c1ccccc1F (stereo not drawn)", "IC50", "nM", 270),
    ("CC(C)(C)OC(=O)Nc1scnc1C(=O)Nc1nccs1", "IC50", "nM", 4620),
]

Entry under review: COC(Cc1scnc1C(=O)Nc1nccs1)c1cccc(Cl)c1 (stereo not drawn) . Reported IC50?
520

Entry under review: O=C(Nc1nccs1)c1ncccc1OCc1ccccc1 . Reported IC50?
770

Entry under review: C=CCC(=O)Nc1cccnc1C(=O)Nc1nccs1 . Reported IC50?
380

Entry under review: COc1cccc(C(=O)Oc2cccnc2C(=O)Nc2nccs2)c1[N+](=O)[O-] . Reported IC50?
3020

Entry under review: Cc1scnc1C(=O)Nc1nccs1 . Reported IC50?
9820

Entry under review: O=C(Nc1nccs1)c1ncccc1NC(=O)C(F)(F)F . Reported IC50?
4920
